# System: Plasmodium falciparum
# procedure details: Antimalarial activity against chloroquine-resistant ring stage of Plasmodium falciparum W2 infected in human erythrocytes assessed as inhibition of parasitemia after 48 hrs by FACS analysis
# Format: functional, organism-based
# applied conditions: W2, 48 h
Reported pIC50 values for a set of compounds
Interpret pIC50 as the negative base-10 log of the concentration measured in mol/L.

1. O=C1[C@@H](NCc2cn(-c3ccnc4cc(Cl)ccc34)nn2)[C@@H](/C=C/c2ccccc2)N1C1CCCCC1 | 5.37

# context switch: different compound, same pIC50
-- ask Form field: reported pIC50 of O=C1[C@@H](NCc2cn(-c3ccnc4cc(Cl)ccc34)nn2)[C@@H](/C=C/c2ccccc2)N1c1ccccc1
-- reply 5.72
